molecular target: full-length human RORγt (GAL4-DBD-RORγt fusion) in HEK293T cells (Homo sapiens (Human)); assay: RORγt (full-length human) reporter assay, conditions A or B; assay type: cell-based; settings: HEK-293T; 3 μM compound concentration (footnote *); read-out: RORγt (FL) Reporter Assay A or B, % inhibition
Sequence (P51449 other isoform, or with tags, fused parts or gaps): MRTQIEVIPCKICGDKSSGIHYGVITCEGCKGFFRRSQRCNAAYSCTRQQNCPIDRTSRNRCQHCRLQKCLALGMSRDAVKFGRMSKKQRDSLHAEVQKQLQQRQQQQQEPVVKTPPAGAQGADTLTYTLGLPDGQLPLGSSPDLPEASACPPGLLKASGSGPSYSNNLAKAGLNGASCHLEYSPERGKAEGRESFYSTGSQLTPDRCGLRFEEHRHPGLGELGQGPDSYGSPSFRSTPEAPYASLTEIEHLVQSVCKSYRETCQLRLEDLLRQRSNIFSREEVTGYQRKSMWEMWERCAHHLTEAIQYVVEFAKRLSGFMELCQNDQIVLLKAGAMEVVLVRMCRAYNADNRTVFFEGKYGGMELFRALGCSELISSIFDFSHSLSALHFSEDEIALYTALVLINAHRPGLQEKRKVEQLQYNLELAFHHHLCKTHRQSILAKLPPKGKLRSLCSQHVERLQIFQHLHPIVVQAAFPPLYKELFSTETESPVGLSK
Reported inhibition at 3 µM by item:
Reply numerically in %, unit not repeated.

[in] Give full-length human RORγt (GAL4-DBD-RORγt fusion) in HEK293T cells (Homo sapiens (Human)) inhibition at 3 µM for "CCn1nc(C(=O)NC[C@]2(O)CC[C@@H](S(C)(=O)=O)CC2)c(C)c1-c1cnc(CC(C)(C)C(F)F)cc1OC(F)F"
[out] 95

[in] Notebook: pull reported inhibition at 3 µM for full-length human RORγt (GAL4-DBD-RORγt fusion) in HEK293T cells (Homo sapiens (Human)), entry "CCn1nc(C(=O)NC[C@H]2CC[C@H](S(C)(=O)=O)CC2)c(Cl)c1-c1cnc(CC(C)(C)C(F)(F)F)cc1C(C)(F)F"
[out] 42

[in] Request: inhibition at 3 µM, test system full-length human RORγt (GAL4-DBD-RORγt fusion) in HEK293T cells (Homo sapiens (Human)), entry "CCn1nc(C(=O)NC[C@H]2CC[C@H](S(C)(=O)=O)CC2)c(C)c1-c1cnc(CC(C(F)(F)F)C(F)(F)F)cc1OC(F)F"
[out] 100

[in] Kindly state the measured inhibition at 3 µM obtained for CCn1nc(C(=O)NC[C@@]2(O)CC[C@H](S(C)(=O)=O)C[C@@H]2O)c(Cl)c1-c1ccc(CC(C)(C)C(F)(F)F)nc1OC(F)F (stereo in doubt) with full-length human RORγt (GAL4-DBD-RORγt fusion) in HEK293T cells (Homo sapiens (Human)).
[out] 101

[in] Lab note: need inhibition at 3 µM with full-length human RORγt (GAL4-DBD-RORγt fusion) in HEK293T cells (Homo sapiens (Human)) for entry "CCn1nc(C(=O)NC[C@]2(O)CC[C@@H](S(C)(=O)=O)CC2)c(Cl)c1-c1ccc(CC(C)(C)C(F)(F)F)nc1OC(F)F" , please look it up.
[out] 97

[in] GET /values?readout=inhibition at 3 µM&system=full-length human RORγt (GAL4-DBD-RORγt fusion) in HEK293T cells (Homo sapiens (Human))&item= "CCn1nc(C(=O)NC[C@H]2CC[C@H](S(N)(=O)=O)CC2)c(Cl)c1-c1cnc(CC(C)(C)C(F)(F)F)cc1OC(F)F"
[out] 108
